# assayedSystem: T1, human [1-305]-mouse chimeric EL (human; mouse, UniProt Q9WVG5 306-500)
# T1 construct: Heparin extract, captured or detected by an anti-C2-tag antibody; also called human-mouse chimeric EL
# T1 sequence: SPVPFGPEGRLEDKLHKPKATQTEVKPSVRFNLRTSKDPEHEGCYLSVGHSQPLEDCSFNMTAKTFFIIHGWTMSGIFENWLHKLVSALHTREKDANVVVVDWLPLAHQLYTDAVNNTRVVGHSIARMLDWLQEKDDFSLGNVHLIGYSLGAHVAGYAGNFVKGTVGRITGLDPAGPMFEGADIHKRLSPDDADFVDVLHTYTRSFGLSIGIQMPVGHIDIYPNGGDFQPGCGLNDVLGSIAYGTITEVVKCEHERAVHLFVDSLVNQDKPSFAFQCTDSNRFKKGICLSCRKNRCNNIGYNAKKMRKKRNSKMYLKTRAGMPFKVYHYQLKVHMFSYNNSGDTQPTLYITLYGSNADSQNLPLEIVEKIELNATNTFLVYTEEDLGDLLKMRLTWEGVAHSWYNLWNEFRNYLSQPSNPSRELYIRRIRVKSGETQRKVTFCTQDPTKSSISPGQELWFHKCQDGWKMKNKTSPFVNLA
# protocolSummary: Biacore; EL captured by anti-C2-tag Ab; bivalent fit
# Description: The binding affinities of anti-EL antibodies were measured using Biacore. […] Then, anti-EL antibodies were added and the binding affinities were calculated by bivalent fitting of BIAevaluation software.
pKd: −log10 of the molar value.
Attribute: pKd
experimentalReadout: pKd

>>> reportedvalue("14E1 (antibody, mouse IgG1, V domains shown, mouse IgG1 from hybridoma) VH: QVQLQQSGAELVKPGASVRLSCKASGYTFTKYTIHWVKQRSGQGLEWIGWFYPGSDSIKYNEKFKDKATLTADKSSRTVYMELSRLTSEDSAVYFCARHEEYTNSLAYWGQGTLVTVSA VL: DIQMTQTTSSLSASLGDRVTISCRASQDISNYLNWYQQQPDGTVKLLIYYTSRLHSGVPSRFSGSGSGTDYSLTISNLEQEDIATYFCQQGYTLPWTFGGGTNLEIK")
8.27
>>> reportedvalue("14A1 (antibody, mouse IgG1, V domains shown, mouse IgG1 from hybridoma) VH: QIQLVQSGPELKKPGETVKISCKASGYTFTNYGMNWVKQAPGKGLKWMGWINTYSGVPTYADDFKGRFAFSLETSASTAYLQINNFKNEDTATYFCARFSYYGRHYFDYWGQGTALTASS VL: DIVLTQSPASLAVSLGQRATISCKASQSVDYDGDSYMNWYQQKPGQPPKLLIYAASNLKSGIPARFSGSGSGTDFTLNIHPVEEEDAATYYCQQTTDDPPWTFGGGTKLEIK")
9.30
>>> reportedvalue("23H8 (antibody, mouse IgG2a, V domains shown, mouse IgG2a from hybridoma; also called 23H8 (mouse mAb)) VH: EVQLQQSGPELLKPGASVKISCKASGYTFTDNTIHWVKQSHGKSLEWIGHINPYYGGTNNNEKFKDKATLTVDKSSSTAYMELRSLTSEDSAIYYCARKGIYYSSPFDYWGQGTTLTVSS VL: DIQMTQTTSSLSASLGDRVTISCRASQDINNYLNWYQQKPDGTVKLLISYTSKLHSGVPSRFSGSGSGTDYSLTISNLEREDFATYFCQQGNTLPFTFGSGTNLEIK")
9.06
